The values you see were collected from ChEMBL document CHEMBL5390308.

- measurement protocol: Lipophilicity, logP of the compound in Octan-1-ol/water by shake-flask method
- Format: physicochemical
Where a SMILES comes first, the peptide text is derived from it.
Consider the following molecules and their measured logP readings.
Just the number.

# molecule, logP
measured = [
    ("CC(C)C[C@H](NC(=O)[C@@H]1CCCN1)C(=O)NCC(N)=O (H-Pro-Leu-Gly-NH2)", -0.56),
]

Let us examine a further case.
Quick check: logP of `CC(C)C[C@H](NC(=O)[C@@H]1CCCN1C(=O)OC(C)(C)C)C(=O)NCC(=O)NC12CC3CC(CC(C3)C1)C2` ? 2.62
